# experimental.target: UniProt P51532
# Sequence (P51532 whole entry): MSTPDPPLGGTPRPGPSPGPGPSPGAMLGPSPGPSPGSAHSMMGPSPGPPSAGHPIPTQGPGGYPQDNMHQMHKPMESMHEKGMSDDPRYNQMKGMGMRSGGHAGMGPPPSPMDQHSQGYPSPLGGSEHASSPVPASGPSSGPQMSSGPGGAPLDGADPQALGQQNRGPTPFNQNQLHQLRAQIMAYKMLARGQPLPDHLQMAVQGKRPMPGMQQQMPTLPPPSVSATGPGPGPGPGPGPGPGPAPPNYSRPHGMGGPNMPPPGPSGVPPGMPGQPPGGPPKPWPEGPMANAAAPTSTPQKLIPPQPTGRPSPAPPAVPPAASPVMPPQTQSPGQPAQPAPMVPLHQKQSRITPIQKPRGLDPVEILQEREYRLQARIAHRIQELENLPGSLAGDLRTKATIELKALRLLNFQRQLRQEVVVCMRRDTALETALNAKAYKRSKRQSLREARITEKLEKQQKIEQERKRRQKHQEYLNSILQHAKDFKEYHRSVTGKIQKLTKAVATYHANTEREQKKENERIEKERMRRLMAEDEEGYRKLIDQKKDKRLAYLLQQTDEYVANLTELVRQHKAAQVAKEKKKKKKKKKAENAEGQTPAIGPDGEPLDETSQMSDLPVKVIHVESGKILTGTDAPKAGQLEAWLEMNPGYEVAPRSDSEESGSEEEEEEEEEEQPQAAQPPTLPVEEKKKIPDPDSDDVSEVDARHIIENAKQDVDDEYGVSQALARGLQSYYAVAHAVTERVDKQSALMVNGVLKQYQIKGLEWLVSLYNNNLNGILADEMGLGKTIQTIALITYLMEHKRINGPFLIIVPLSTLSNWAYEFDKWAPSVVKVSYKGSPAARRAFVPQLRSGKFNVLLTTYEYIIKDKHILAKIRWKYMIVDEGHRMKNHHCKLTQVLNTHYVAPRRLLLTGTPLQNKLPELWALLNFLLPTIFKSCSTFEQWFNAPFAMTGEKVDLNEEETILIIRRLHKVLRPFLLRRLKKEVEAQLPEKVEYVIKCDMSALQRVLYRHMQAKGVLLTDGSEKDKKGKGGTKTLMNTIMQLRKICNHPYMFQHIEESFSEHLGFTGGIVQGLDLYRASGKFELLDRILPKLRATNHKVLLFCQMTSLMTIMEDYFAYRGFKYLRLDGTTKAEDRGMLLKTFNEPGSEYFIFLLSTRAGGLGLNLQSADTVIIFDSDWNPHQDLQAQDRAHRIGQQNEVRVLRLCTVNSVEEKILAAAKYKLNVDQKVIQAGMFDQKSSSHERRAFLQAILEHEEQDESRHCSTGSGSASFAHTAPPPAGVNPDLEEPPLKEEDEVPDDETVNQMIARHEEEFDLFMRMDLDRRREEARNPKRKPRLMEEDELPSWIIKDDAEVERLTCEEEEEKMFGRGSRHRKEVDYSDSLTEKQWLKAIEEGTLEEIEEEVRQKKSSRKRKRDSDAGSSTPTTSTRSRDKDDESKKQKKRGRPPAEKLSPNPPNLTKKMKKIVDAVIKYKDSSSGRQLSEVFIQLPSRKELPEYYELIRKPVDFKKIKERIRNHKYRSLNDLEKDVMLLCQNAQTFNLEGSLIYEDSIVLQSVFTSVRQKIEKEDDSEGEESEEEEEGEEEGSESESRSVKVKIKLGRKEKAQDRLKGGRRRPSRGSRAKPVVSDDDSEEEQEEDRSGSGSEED
# assay.protocol: ATPase catalytic activity assay (ADP-Glo), BRG-1
reported.property: IC50

In the examples that follow, each entry is paired with its recorded IC50.
[[record]]
compound = "C[C@@]1(F)COCc2ccc(C(=O)NCc3cc(C#Cc4ccccc4)ccn3)cc21 [Compound 14]"
experimental_target = "UniProt P51532"
recorded_result = "> 1000 nM"

[[record]]
compound = "Cc1ccn(-c2ccc3cnc(CNC(=O)c4ccc5c(c4)[C@](C)(C#N)COC5)cc3n2)n1 [Compound 503]"
experimental_target = "UniProt P51532"
recorded_result = "> 1000 nM"

[[record]]
compound = "CC(=O)N1CCOc2c(-c3ccc4cnc(CNC(=O)c5ccc6c(c5)[C@](C)(C#N)COC6)cc4n3)cccc21 [Compound 320]"
experimental_target = "UniProt P51532"
recorded_result = "500 to 1000 nM"

[[record]]
compound = "C[C@@]1(F)COCc2ccc(C(=O)NCc3cc4nc(-c5ccnc(N6CCOCC6)n5)ccc4cn3)cc21 [Compound 259]"
experimental_target = "UniProt P51532"
recorded_result = "100 to 500 nM"


Item C[C@@]1(C#N)COCc2ccc(C(=O)NCc3cc4nc(-c5cc(F)cc(F)c5)ccc4cn3)cc21 [Compound 518] with UniProt P51532 - IC50?
500 to 1000 nM

Item C[C@@]1(F)COCc2ccc(C(=O)NCc3cc4nc(-c5ccccc5)sc4cn3)cc21 [Compound 300] with UniProt P51532 - IC50?
500 to 1000 nM

Item C[C@@]1(C#N)COCc2ccc(C(=O)NCc3cc4nc(-c5cncc(N6CCOCC6)n5)ccc4cn3)cc21 [Compound 435] with UniProt P51532 - IC50?
100 to 500 nM
